- tgt: Anti-CD28 scFv (VH-linker 1-VL) (biotinylated for capture on neutravidin plates)
- Sequence (scFv, as listed by the source): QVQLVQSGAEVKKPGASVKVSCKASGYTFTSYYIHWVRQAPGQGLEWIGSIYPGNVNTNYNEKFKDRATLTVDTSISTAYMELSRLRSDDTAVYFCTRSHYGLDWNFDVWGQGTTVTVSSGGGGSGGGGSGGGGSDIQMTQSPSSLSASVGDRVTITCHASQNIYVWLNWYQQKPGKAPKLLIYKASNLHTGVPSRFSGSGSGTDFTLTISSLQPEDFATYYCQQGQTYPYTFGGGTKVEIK
- test.details: phage ELISA, scFv captured on plate, competitor soluble CD28;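 also: crude clonal phage supernatants added to wells pre-incubated with soluble CD28 or with blocking buffer only as control, bound phage read out with HRP-linked anti-M13 antibody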
Label scheme for Phage binding ELISA CD28 scFv signal in presence of CD28: lower than 0.2 is Criterion not met, 0.2 and above is Criterion met.

MDWCPSDLWHECFH [Phage-176]; Criterion not met
MDWCPRYLWFECFS [Phage-117]; Criterion met
MDWCPRDMWAECFF [Phage-190]; Criterion met
IDWCPRDLWALCFN [Phage-183]; Criterion not met
MDWCPRHLWDLCFA [Phage-166]; Criterion not met
MDWCPRSLWSYCFH [Phage-157]; Criterion not met
MDWCPRYLWHMCYS [Phage-119]; Criterion met
MDWCPMNMWYQCFN [Phage-216]; Criterion not met
MDWCPTNLWHECFA [Phage-138]; Criterion not met
IGKLTLCLNADLVI [Phage-187]; Criterion not met
MDWCPRHMWNVCFS [Phage-204]; Criterion not met
